- System: HUVEC cells
- protocol.description: Cell viability (CCK8) assay, HUVEC
- Format: cell-based, human
- conditions: CCK8, 48 h treatment in medium with 5% FBS, absorbance 450 nm; mean ± SD; read-out: IC50, cytotoxicity in HUVEC cells
pIC50: −log10 of the molar value. Square brackets hold non-standard residues; d marks the D form. Peptide text beside a SMILES is read from it. Aib = CC(C)(N)C(=O)O

molecule	pIC50
CC(=O)N[C@@H](CCCCN)C(=O)N[C@@H](CC(C)C)C(=O)NC(C)(C)C(=O)N[C@@H](CCCCN)C(=O)N[C@@H](CC(C)C)C(=O)NC(C)(C)C(=O)N[C@@H](CCCCN)C(=O)N[C@@H](CCCCN)C(=O)N[C@@H](CC(C)C)C(=O)NC(C)(C)C(=O)N[C@@H](CCCCN)C(=O)N[C@@H](CC(C)C)C(=O)NC(C)(C)C(=O)N[C@@H](CCCCN)C(N)=O [KLU] (Ac-KL[Aib]KL[Aib]KKL[Aib]KL[Aib]K-NH2)	4.47

* * *

- Tested on: Huh7 cells
- protocol.description: Cell viability (CCK8) assay, Huh7
- Assay type: cell-based, human
- conditions: CCK8, 48 h treatment in medium with 5% FBS, absorbance 450 nm; mean ± SD; read-out: IC50, cytotoxicity in Huh7 cells
Square brackets hold non-standard residues; d marks the D form. Peptide text beside a SMILES is read from it. Aib = CC(C)(N)C(=O)O

compound	IC50, µM
CC(=O)N[C@@H](CCCCN)C(=O)N[C@@H](CC(C)C)C(=O)NC(C)(C)C(=O)N[C@@H](CCCCN)C(=O)N[C@@H](CC(C)C)C(=O)NC(C)(C)C(=O)N[C@@H](CCCCN)C(=O)N[C@@H](CCCCN)C(=O)N[C@@H](CC(C)C)C(=O)NC(C)(C)C(=O)N[C@@H](CCCCN)C(=O)N[C@@H](CC(C)C)C(=O)NC(C)(C)C(=O)N[C@@H](CCCCN)C(N)=O [KLU] (Ac-KL[Aib]KL[Aib]KKL[Aib]KL[Aib]K-NH2)	36.3
